Numbers sourced from ChEMBL document CHEMBL1149701.

Target: Sortase A (Staphylococcus aureus, UniProt Q9S446)
Sequence (Q9S446 whole entry): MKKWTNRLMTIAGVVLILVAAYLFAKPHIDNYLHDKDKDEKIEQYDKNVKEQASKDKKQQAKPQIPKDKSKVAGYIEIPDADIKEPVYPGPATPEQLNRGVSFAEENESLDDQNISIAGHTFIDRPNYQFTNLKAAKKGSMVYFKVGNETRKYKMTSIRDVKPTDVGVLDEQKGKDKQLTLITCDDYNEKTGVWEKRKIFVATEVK
VALUE KIND: pIC50
Numbers only, as −log10 of the molar value.

For every item below, please supply its pIC50.
1. COc1cc2ccnc3c2c(c1O)N(C)C=C3
2. COC1=Cc2ccnc3ccnc(c23)C1=O
3. COc1cc2ccnc3c2c(c1OC)NC=C3
4. COc1ccc2cc3[n+](cc2c1OC)CCc1cc2c(cc1-3)OCO2.[Cl-] [BERBERINE CHLORIDE]
5. Oc1cc2ccnc3c2c(c1O)NC=C3

1: 4.79; 2: 4.02; 3: 3.99; 4: 4.63; 5: 4.07
